- method: Ex vivo biodistribution in wild-type mice
- particulars: mouse, blood, total radioactivity, 75 min p.i., ex vivo gamma counting, + AMD3100 5 mg/kg, mean ± SD, n: PentixaFor 1, 18F 2, 68Ga 4, 177Lu 3, read-out: blood uptake
Non-standard residues stand in square brackets, D forms with d. Residues, ends and D or L forms follow the SMILES beside them. Groups on a side chain read outwards from the residue. *: point of attachment. DOTA = O=C(O)CN1CCN(CC(=O)O)CCN(CC(=O)*)CCN(CC(=O)O)CC1; 2Nal = N[C@@H](Cc1ccc2ccccc2c1)C(=O)O; dNMeOrn = CN[C@H](CCCN)C(=O)O; 4Amb = NCc1ccc(C(=O)O)cc1

{"compound": "CN1C(=O)[C@@H](Cc2ccc(O)cc2)NC(=O)CNC(=O)[C@H](Cc2ccc3ccccc3c2)NC(=O)[C@H](CCCNC(=N)N)NC(=O)[C@H]1CCCNC(=O)c1ccc(CNC(=O)CN2CCN(CC(=O)O)CCN(CC(=O)O)CCN(CC(=O)O)CC2)cc1 [[^68Ga]PentixaFor, metal not drawn] (cyclo([dY][dNMeOrn]([4Amb-DOTA])R[2Nal]G))", "SUV at 1.25 h (SUV)": 0.5}

These data points were gathered from paper PMC8537445.
